tgt: Orphan methyltransferase M.SssI (Spiroplasma monobiae, UniProt P15840)
Sequence (P15840 whole entry): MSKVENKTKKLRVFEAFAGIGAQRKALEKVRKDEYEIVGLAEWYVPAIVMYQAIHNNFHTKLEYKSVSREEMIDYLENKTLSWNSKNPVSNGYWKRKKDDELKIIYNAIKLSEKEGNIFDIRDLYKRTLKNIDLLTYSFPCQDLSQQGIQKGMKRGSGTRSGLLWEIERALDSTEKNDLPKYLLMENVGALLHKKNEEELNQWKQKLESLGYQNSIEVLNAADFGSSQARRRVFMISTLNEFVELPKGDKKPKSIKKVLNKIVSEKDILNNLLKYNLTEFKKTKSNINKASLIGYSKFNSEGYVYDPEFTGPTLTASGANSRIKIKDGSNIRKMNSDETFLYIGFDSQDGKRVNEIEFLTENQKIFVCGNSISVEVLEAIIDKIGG
procedure-details: Inhibition of recombinant CpG methylase M.SssI
pIC50: −log10 of the molar value.

| molecule | tgt | pIC50 |
| --- | --- | --- |
| Cc1ccn2c(CCc3nnc4cc(C)ccn34)nnc2c1 | Orphan methyltransferase M.SssI (Spiroplasma monobiae, UniProt P15840) | 6.40 |
| O=C(O)C(Cc1c[nH]c2ccccc12)N1C(=O)c2ccccc2C1=O (configuration not stated) | Orphan methyltransferase M.SssI (Spiroplasma monobiae, UniProt P15840) | 6.22 |

----------
tgt: DNA (cytosine-5)-methyltransferase 1 (Homo sapiens, UniProt P26358)
Sequence (P26358 whole entry): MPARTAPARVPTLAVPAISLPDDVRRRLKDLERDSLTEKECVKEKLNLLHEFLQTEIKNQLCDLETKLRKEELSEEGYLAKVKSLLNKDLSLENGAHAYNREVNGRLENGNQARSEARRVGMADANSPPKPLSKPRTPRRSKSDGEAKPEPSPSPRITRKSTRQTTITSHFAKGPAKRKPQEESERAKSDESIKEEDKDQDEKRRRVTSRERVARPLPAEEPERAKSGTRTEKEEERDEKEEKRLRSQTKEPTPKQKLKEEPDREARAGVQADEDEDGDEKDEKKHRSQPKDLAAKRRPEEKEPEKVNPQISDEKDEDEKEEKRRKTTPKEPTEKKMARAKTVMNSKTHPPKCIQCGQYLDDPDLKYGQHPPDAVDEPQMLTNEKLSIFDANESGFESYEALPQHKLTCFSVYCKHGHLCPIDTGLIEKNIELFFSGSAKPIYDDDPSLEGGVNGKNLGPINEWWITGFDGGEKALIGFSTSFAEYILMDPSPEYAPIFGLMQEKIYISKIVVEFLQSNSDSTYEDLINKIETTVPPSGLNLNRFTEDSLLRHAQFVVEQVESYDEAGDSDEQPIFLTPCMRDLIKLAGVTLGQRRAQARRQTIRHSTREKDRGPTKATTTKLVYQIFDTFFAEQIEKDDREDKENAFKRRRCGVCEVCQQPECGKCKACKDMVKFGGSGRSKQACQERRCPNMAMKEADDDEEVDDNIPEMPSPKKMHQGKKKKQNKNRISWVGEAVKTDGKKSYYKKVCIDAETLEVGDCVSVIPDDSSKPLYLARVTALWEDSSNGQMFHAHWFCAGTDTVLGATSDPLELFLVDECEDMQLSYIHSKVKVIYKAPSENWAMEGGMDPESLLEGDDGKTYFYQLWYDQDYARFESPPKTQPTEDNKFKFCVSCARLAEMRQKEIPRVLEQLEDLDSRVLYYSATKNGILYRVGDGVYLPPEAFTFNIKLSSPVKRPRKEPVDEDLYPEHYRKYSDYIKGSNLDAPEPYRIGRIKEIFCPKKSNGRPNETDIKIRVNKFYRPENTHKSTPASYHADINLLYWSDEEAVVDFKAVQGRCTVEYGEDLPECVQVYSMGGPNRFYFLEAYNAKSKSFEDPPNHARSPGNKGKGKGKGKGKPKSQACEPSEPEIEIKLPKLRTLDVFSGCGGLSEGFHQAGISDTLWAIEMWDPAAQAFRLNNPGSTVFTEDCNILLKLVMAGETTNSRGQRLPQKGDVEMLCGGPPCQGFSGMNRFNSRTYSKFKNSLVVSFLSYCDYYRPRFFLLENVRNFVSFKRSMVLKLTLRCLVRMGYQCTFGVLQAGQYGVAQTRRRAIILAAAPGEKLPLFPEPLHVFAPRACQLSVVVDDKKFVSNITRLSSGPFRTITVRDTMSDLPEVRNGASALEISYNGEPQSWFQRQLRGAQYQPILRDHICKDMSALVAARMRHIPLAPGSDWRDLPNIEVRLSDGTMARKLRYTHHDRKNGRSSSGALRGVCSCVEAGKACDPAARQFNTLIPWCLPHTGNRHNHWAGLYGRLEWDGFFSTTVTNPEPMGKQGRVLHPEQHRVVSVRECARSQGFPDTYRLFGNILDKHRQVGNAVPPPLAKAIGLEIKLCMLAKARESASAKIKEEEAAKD
procedure-details: Inhibitory activity against DNA methyl transferase in leukemic NALM6 cells
Overview of reported IC50 across a group of compounds:
measured-attribute: IC50 (µM)

| compound | measured-attribute | observed-result |
| --- | --- | --- |
| Cc1ccn2c(CCc3nnc4cc(C)ccn34)nnc2c1 | IC50 | 100 |
| O=C(O)C(Cc1c[nH]c2ccccc12)N1C(=O)c2ccccc2C1=O (configuration not stated) | IC50 | 50 |

Data origin, for the record: ChEMBL document CHEMBL1147744
